EXPERIMENTAL TARGET: FGR (Homo sapiens (Human), UniProt P09769)
Sequence (P09769 whole entry): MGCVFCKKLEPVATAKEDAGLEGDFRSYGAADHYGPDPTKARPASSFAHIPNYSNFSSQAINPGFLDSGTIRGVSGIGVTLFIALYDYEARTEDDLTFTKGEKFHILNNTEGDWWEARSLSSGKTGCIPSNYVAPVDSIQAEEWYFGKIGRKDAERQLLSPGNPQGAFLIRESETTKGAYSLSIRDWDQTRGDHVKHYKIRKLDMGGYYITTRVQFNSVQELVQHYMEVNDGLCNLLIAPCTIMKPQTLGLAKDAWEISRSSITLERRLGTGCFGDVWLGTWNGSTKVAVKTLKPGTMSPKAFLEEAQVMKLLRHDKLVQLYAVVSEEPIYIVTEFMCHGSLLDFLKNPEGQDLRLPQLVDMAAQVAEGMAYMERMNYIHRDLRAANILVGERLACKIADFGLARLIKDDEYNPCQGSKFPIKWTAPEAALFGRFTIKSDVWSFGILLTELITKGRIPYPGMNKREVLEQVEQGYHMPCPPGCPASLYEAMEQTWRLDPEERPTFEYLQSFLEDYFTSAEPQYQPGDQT
ASSAY INFO: Reaction Biology HotSpot kinase assay
Type: biochemical
PROTOCOL CONDITIONS: 500 nM compound; read-out: Percentage kinase inhibition FGR
Listed here: items and their measured inhibition at 0.5 µM.

{"columns": ["COMPOUND", "READOUT UNITS", "inhibition at 0.5 µM"],
 "data": [
  ["Cc1ccc(C(=O)Nc2ccc(CN3CCN(C)CC3)c(C(F)(F)F)c2)cc1C#Cc1cc(N)nc2ccccc12 [HSN285]", "%", 0],
  ["Cc1ccc(C(=O)Nc2ccc(CN3CCN(C)CC3)c(C(F)(F)F)c2)cc1C#Cc1cnc(N)c2ncccc12 [HSN356]", "%", 99],
  ["Cc1ccc(C(=O)Nc2ccc(CN3CCN(C)CC3)c(C(F)(F)F)c2)cc1C#Cc1cnc(N)c2ccccc12 [HSN334]", "%", 100],
  ["Cc1ccc(C(=O)Nc2ccc(CN3CCN(C)CC3)c(C(F)(F)F)c2)cc1C#Cc1c(N)ncc2ccc(Cl)cc12 [HSN286]", "%", 100],
  ["COc1cc2nc(N)nc(C#Cc3cc(C(=O)Nc4ccc(CN5CCN(C)CC5)c(C(F)(F)F)c4)ccc3C)c2cc1OC [HSN325]", "%", 39]
]}

====

EXPERIMENTAL TARGET: FLT3 (ITD, F691L) (Homo sapiens, UniProt P36888, F691L/ITD)
ASSAY INFO: DiscoverX Kd Elect binding
PROTOCOL CONDITIONS: read-out: Kd FLT3 (ITD, F691L)

{"columns": ["SMILES ENTRY", "Kd, nM"],
 "data": [
  ["Cc1ncc(C(=O)Nc2ccc(CN3CCN(C)CC3)c(C(F)(F)F)c2)cc1C#Cc1c(N)ncc2ccc(F)cc12", 57],
  ["Cc1ncc(C(=O)Nc2ccc(CN3CCN(C)CC3)c(C(F)(F)F)c2)cc1C#Cc1cnc(N)c2ccccc12", 91],
  ["Cc1ncc(C(=O)Nc2ccc(CN3CCN(C)CC3)c(C(F)(F)F)c2)cc1C#Cc1cnc(N)c2ncccc12", 17]
]}

====

EXPERIMENTAL TARGET: FLT3 (ITD) (Homo sapiens, UniProt P36888, ITD)
Sequence (P36888 whole entry, looked up, change not shown): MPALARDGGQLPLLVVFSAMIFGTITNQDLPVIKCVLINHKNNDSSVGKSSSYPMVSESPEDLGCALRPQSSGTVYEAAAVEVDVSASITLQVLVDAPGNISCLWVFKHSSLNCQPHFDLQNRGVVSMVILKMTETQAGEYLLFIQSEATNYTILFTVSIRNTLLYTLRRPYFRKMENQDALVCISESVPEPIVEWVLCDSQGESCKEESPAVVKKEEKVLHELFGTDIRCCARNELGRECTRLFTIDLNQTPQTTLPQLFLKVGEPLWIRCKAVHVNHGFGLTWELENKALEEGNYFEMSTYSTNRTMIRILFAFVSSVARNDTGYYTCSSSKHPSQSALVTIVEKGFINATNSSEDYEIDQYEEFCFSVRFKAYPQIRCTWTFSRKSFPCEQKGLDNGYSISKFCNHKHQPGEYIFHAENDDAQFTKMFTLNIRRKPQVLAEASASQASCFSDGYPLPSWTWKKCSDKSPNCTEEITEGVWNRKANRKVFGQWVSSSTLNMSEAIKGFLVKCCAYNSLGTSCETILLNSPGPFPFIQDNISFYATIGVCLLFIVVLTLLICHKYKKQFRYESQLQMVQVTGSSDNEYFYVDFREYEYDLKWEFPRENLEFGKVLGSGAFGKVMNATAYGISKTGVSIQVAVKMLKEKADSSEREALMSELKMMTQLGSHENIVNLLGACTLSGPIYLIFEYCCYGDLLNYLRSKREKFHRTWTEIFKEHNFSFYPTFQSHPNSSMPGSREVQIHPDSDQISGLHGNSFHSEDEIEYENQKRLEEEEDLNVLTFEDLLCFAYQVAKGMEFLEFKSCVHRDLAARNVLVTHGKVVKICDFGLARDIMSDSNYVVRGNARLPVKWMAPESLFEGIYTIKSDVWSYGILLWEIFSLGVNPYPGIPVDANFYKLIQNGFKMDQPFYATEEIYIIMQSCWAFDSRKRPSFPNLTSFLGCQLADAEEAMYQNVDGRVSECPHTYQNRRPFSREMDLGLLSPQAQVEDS
ASSAY INFO: DiscoverX Kd Elect binding
PROTOCOL CONDITIONS: read-out: Kd FLT3 (ITD)
pKd: −log10 of the molar value.
Listed here: items and their measured pKd.

{"columns": ["SMILES ENTRY", "pKd"],
 "data": [
  ["Cc1ncc(C(=O)Nc2ccc(CN3CCN(C)CC3)c(C(F)(F)F)c2)cc1C#Cc1cnc(N)c2ncccc12", 8.25],
  ["Cc1ncc(C(=O)Nc2ccc(CN3CCN(C)CC3)c(C(F)(F)F)c2)cc1C#Cc1cnc(N)c2ccccc12", 8.10]
]}

====

EXPERIMENTAL TARGET: ABL1 (T315I) non-phosphorylated (Homo sapiens (Human), UniProt P00519, T315I)
ASSAY INFO: DiscoverX Kd Elect binding
pKd: −log10 of the molar value.

{"columns": ["SMILES ENTRY", "pKd"],
 "data": [
  ["Cc1ccc(C(=O)Nc2ccc(CN3CCN(C)CC3)c(C(F)(F)F)c2)cc1C#Cc1cnc(N)c2ncccc12", 8.62],
  ["Cc1ccc(C(=O)Nc2ccc(CN3CCN(C)CC3)c(C(F)(F)F)c2)cc1C#Cc1c(N)ncc2ccc(Cl)cc12", 7.54]
]}
